// provenance: PubChem BioAssay (NCI)

test system: K-562 leukemia; experiment: NCI-60 one-dose screen, 48 h (100 = growth as untreated, 0 = no growth, -100 = all killed); settings: 10 µM unless noted
About 83,000 compounds went through this panel and 20% of them were active in at least one assay; those are over-represented in the sample as a whole.
// NB: equality with 90% counts as false; only growth strictly below is true

COc1cc(/C=C2\CN(C(=O)OC(C)(C)C)C/C(=C\c3ccc(O)c(OC)c3)C2=O)ccc1O = true
COc1cc(C)c(Cl)cc1C1=NN(c2ccc(S(N)(=O)=O)cc2)C(/C=C/c2ccccc2)C1 (stereo not given) = true
CCCCCN(CCCCC)C(=O)C(CCC(=O)O)NC(=O)c1ccc(Cl)c(Cl)c1 (stereo not given) = false
